Recorded IC50 values for a group of compounds are listed next.
Tested on: human CB2 receptor (Homo sapiens, UniProt P34972)
Construct: host or cells: CHO-K1
Sequence (P34972 whole entry): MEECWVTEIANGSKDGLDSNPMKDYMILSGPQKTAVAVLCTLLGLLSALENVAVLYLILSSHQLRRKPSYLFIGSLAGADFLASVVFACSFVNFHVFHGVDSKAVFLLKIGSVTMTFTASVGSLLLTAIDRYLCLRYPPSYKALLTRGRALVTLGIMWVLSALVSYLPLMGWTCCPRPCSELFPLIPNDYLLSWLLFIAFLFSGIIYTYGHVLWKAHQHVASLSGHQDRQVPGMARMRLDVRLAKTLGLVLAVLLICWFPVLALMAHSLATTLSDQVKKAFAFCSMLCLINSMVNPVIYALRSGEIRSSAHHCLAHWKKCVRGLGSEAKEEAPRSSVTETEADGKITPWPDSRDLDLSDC
Protocol details: CB2 radioligand competitive binding assay ([3H]CP 55,940 displacement)
Experimental context: 0.6 nM [3H]CP55,940, membranes from CHO-K1 cells expressing human CB2 receptor, dose-response; read-out: CB2 IC50
Protocol: Compounds of the present disclosure were tested for CB1 receptor binding affinity and for CB2 receptor binding affinity. As used herein, “binding affinity” is represented by the IC50 value, which was experimentally determined as described herein. The lower the IC50 value the higher the binding affinity. A compound of the present disclosure may be said to have “binding selectivity” if it has a higher binding affinity for one receptor compared to the other. […]

{"columns": ["Compound", "IC50"],
 "data": [
  ["CCCCCCNS(=O)(=O)c1c(CCCCC)cc(O)c(C/C=C(\\C)CCC=C(C)C)c1O [Compound 64]", "100 to 490 nM"],
  ["CCCCCc1cc(O)c(C/C=C(\\C)CCC=C(C)C)c(O)c1S(=O)(=O)Oc1ccccc1 [Compound 67]", "100 to 490 nM"],
  ["CCCCCc1cc(O)c(C/C=C(\\C)CCC=C(C)C)c(O)c1S(=O)(=O)NC1CCCCC1 [Compound 62]", "100 to 490 nM"]
]}
